Entries and their Bliss excess values follow.
- Tested on: CAPAN-1 (Pancreatic Carcinoma)
- experiment: Bliss excess, mean over the matrix (fraction); higher = more synergy
Would you mind answering with just the numeric figure?

- molecule: "O=C(c1cc(Cc2n[nH]c(=O)c3ccccc23)ccc1F)N1CCN(C(=O)C2CC2)CC1 [Olaparib] + Cc1c2c(nn1C)CSCc1cc(n(C)n1)CSc1cc(c3ccccc3c1)OCCCc1c(C(=O)O)n(C)c3c-2c(Cl)ccc13 [AZD5991] (first compound max 10 µM, 7x7, partner max 1 µM)"
  Bliss excess: -0.0392
- molecule: "O=C(c1cc(Cc2n[nH]c(=O)c3ccccc23)ccc1F)N1CCN(C(=O)C2CC2)CC1 [Olaparib] + CC1(C)CCC(CN2CCN(c3ccc(C(=O)NS(=O)(=O)c4ccc(NCC5CCOCC5)c([N+](=O)[O-])c4)c(Oc4cnc5[nH]ccc5c4)c3)CC2)=C(c2ccc(Cl)cc2)C1 [Venetoclax] (first compound max 10 µM, 7x7, partner max 1 µM)"
  Bliss excess: -0.0564
- molecule: "CC1(C)CCC(CN2CCN(c3ccc(C(=O)NS(=O)(=O)c4ccc(NCC5CCOCC5)c([N+](=O)[O-])c4)c(Oc4cnc5[nH]ccc5c4)c3)CC2)=C(c2ccc(Cl)cc2)C1 [Venetoclax] + CN(C)CCCOc1ccc(-c2ccc3ncc4c(c3c2)n(C2CCOCC2)c(=O)n4C)cn1 [AZD0156] (first compound max 1 µM, 7x7, partner max 1 µM)"
  Bliss excess: -0.0696

So what's the measured Bliss excess for this one? C[C@@H](Nc1cc(F)cc(F)c1)c1cc(C(=O)N(C)C)cc2c(=O)cc(N3CCOCC3)oc12 [AZD8186] + CC(=O)c1c(C)c2cnc(Nc3ccc(N4CCNCC4)cn3)nc2n(C2CCCC2)c1=O [Palbociclib] (first compound max 10 µM, 7x7, partner max 10 µM) -0.0559

For Cc1c2c(nn1C)CSCc1cc(n(C)n1)CSc1cc(c3ccccc3c1)OCCCc1c(C(=O)O)n(C)c3c-2c(Cl)ccc13 [AZD5991] + C[C@@H]1COCCN1C2=NC(=NC(=C2)C3(CC3)[S@](=N)(=O)C)C4=C5C=CNC5=NC=C4 [AZD6738] (first compound max 1 µM, 7x7, partner max 10 µM) , what is its reported Bliss excess? -0.0167

Field request: Bliss excess | item: Cc1nc(Nc2ncc(C(=O)Nc3c(C)cccc3Cl)s2)cc(N2CCN(CCO)CC2)n1 [Dasatinib] + CC(=O)Nc1cccc(-n2c(=O)n(C3CC3)c(=O)c3c(Nc4ccc(I)cc4F)n(C)c(=O)c(C)c32)c1 [Trametinib] (first compound max 2 µM, 7x7, partner max 1 µM) 0.0044

Consider the molecule CS(=O)(=O)CCNCc1ccc(-c2ccc3ncnc(Nc4ccc(OCc5cccc(F)c5)c(Cl)c4)c3c2)o1 [Lapatinib] + C[C@@H](Oc1cc(-c2cnn(C3CCNCC3)c2)cnc1N)c1c(Cl)ccc(F)c1Cl [Crizotinib] (first compound max 10 µM, 7x7, partner max 10 µM) and give its measured Bliss excess. -0.0937

---

- Test system: HCC-15 (Squamous Cell Lung Carcinoma)
- experiment: combination Emax (second highest fraction inhibited in the dose matrix, 72 h); higher = more inhibition; extreme values may be limits of the assay
Listing: combination Emax of selected compounds
When you answer, write just the number.

- compound: "CC(=O)c1c(C)c2cnc(Nc3ccc(N4CCNCC4)cn3)nc2n(C2CCCC2)c1=O [Palbociclib] + CC1(C)CCC(CN2CCN(c3ccc(C(=O)NS(=O)(=O)c4ccc(NCC5CCOCC5)c([N+](=O)[O-])c4)c(Oc4cnc5[nH]ccc5c4)c3)CC2)=C(c2ccc(Cl)cc2)C1 [Venetoclax] (first compound max 10 µM, 7x7, partner max 1 µM)"
  recordedValue: 0.177
- compound: "C[C@@H]1COCCN1c1cc(C2([S@](C)(=N)=O)CC2)nc(-c2ccnc3[nH]ccc23)n1 [AZD6738] + O=C(c1cc(Cc2n[nH]c(=O)c3ccccc23)ccc1F)N1CCN(C(=O)C2CC2)CC1 [Olaparib] (first compound max 10 µM, 7x7, partner max 10 µM)"
  recordedValue: 0.258

Now take the following compound into account.
Fill in: combination Emax of NC1(C(=O)N[C@@H](CCO)c2ccc(Cl)cc2)CCN(c2ncnc3[nH]ccc23)CC1 [Capivasertib] + CC(=O)c1c(C)c2cnc(Nc3ccc(N4CCNCC4)cn3)nc2n(C2CCCC2)c1=O [Palbociclib] (first compound max 10 µM, 7x7, partner max 10 µM) is ___ 0.633

---

- System: UMC-11 (Other Solid Carcinomas)
- experiment: Bliss excess, mean over the matrix (fraction); higher = more synergy
Tag: rule met if measured Bliss excess is not below -0.02, rule not met if it is.

- compound: "CN(C)CCCOc1ccc(-c2ccc3ncc4c(c3c2)n(C2CCOCC2)c(=O)n4C)cn1 [AZD0156] + C=CCn1c(=O)c2cnc(Nc3ccc(N4CCN(C)CC4)cc3)nc2n1-c1cccc(C(C)(C)O)n1 [AZD1775] (first compound max 1 µM, partner max 1 µM)"
  assignedLabel: "rule not met"
- compound: "NC1(C(=O)N[C@@H](CCO)c2ccc(Cl)cc2)CCN(c2ncnc3[nH]ccc23)CC1 [Capivasertib] + C[C@@H]1COCCN1C2=NC(=NC(=C2)C3(CC3)[S@](=N)(=O)C)C4=C5C=CNC5=NC=C4 [AZD6738] (first compound max 10 µM, 7x7, partner max 10 µM)"
  assignedLabel: "rule met"
- compound: "COc1nnc2ccc(N3CCC(c4ccc(OCCN5CCN(C)C(=O)[C@H]5C)cc4)CC3)nn12 [AZD5153] + Cc1c2c(nn1C)CSCc1cc(n(C)n1)CSc1cc(c3ccccc3c1)OCCCc1c(C(=O)O)n(C)c3c-2c(Cl)ccc13 [AZD5991] (first compound max 1 µM, 7x7, partner max 1 µM)"
  assignedLabel: "rule met"
- compound: "CN(C)CCCOc1ccc(-c2ccc3ncc4c(c3c2)n(C2CCOCC2)c(=O)n4C)cn1 [AZD0156] + C[C@@H]1COCCN1C2=NC(=NC(=C2)C3(CC3)[S@](=N)(=O)C)C4=C5C=CNC5=NC=C4 [AZD6738] (first compound max 1 µM, 7x7, partner max 10 µM)"
  assignedLabel: "rule met"
- compound: "CCN(CCO)CCCOc1ccc2c(Nc3cc(CC(=O)Nc4cccc(F)c4)[nH]n3)ncnc2c1 [AZD2811] + C[C@@H]1COCCN1C2=NC(=NC(=C2)C3(CC3)[S@](=N)(=O)C)C4=C5C=CNC5=NC=C4 [AZD6738] (first compound max 1 µM, 7x7, partner max 10 µM)"
  assignedLabel: "rule not met"
- compound: "CCc1c2c(nc3ccc(O)cc13)-c1cc3c(c(=O)n1C2)COC(=O)[C@]3(O)CC [SN-38] + O=C(c1cc(Cc2n[nH]c(=O)c3ccccc23)ccc1F)N1CCN(C(=O)C2CC2)CC1 [Olaparib] (first compound max 0.3 µM, 7x7, partner max 10 µM)"
  assignedLabel: "rule met"

Please tell me: is the compound CN(CCO)CC[C@H](CSc1ccccc1)Nc1ccc(S(=O)(=O)NC(=O)c2ccc(N3CCC([C@@H](O)c4ccccc4-c4ccc(Cl)cc4)CC3)cc2)cc1S(=O)(=O)C(F)(F)F [AZD4320] + CCN(CCO)CCCOc1ccc2c(Nc3cc(CC(=O)Nc4cccc(F)c4)[nH]n3)ncnc2c1 [AZD2811] (first compound max 1 µM, 7x7, partner max 1 µM) at or over -0.02 in terms of Bliss excess? rule not met

Check the entry COc1nnc2ccc(N3CCC(c4ccc(OCCN5CCN(C)C(=O)[C@H]5C)cc4)CC3)nn12 [AZD5153] + C=CCn1c(=O)c2cnc(Nc3ccc(N4CCN(C)CC4)cc3)nc2n1-c1cccc(C(C)(C)O)n1 [AZD1775] (first compound max 1 µM, partner max 1 µM) : does Bliss excess equal or exceed -0.02? rule met

Bliss excess >= -0.02 for CCc1c2c(nc3ccc(O)cc13)-c1cc3c(c(=O)n1C2)COC(=O)[C@]3(O)CC [SN-38] + CN(C)CCCOc1ccc(-c2ccc3ncc4c(c3c2)n(C2CCOCC2)c(=O)n4C)cn1 [AZD0156] (first compound max 0.3 µM, 7x7, partner max 1 µM) ? rule met

---

Measured Bliss excess values are reported for all entries that follow.
- System: 639-V (Bladder Carcinoma)
- experiment: Bliss excess, mean over the matrix (fraction); higher = more synergy
Give the figure only, with no unit attached.

Consider the worked cases shown below.
- compound: "Cc1c2c(nn1C)CSCc1cc(n(C)n1)CSc1cc(c3ccccc3c1)OCCCc1c(C(=O)O)n(C)c3c-2c(Cl)ccc13 [AZD5991] + Cc1cc2ncnn2cc1Nc1ncc2c(n1)n(C1CCOCC1)c(=O)n2C [AZD7648] (first compound max 1 µM, 7x7, partner max 10 µM)"
  Bliss excess: -0.005
- compound: "CC1(C)CCC(CN2CCN(c3ccc(C(=O)NS(=O)(=O)c4ccc(NCC5CCOCC5)c([N+](=O)[O-])c4)c(Oc4cnc5[nH]ccc5c4)c3)CC2)=C(c2ccc(Cl)cc2)C1 [Venetoclax] + C[C@@H](Nc1cc(F)cc(F)c1)c1cc(C(=O)N(C)C)cc2c(=O)cc(N3CCOCC3)oc12 [AZD8186] (first compound max 1 µM, 7x7, partner max 3 µM)"
  Bliss excess: 0.0371
- compound: "NC1(C(=O)N[C@@H](CCO)c2ccc(Cl)cc2)CCN(c2ncnc3[nH]ccc23)CC1 [Capivasertib] + COc1nnc2ccc(N3CCC(c4ccc(OCCN5CCN(C)C(=O)[C@H]5C)cc4)CC3)nn12 [AZD5153] (first compound max 10 µM, 7x7, partner max 1 µM)"
  Bliss excess: 0.0409

Okay, next one:
So what does the record say about Bliss excess for Cn1cnc2c(F)c(Nc3ccc(Br)cc3Cl)c(C(=O)NOCCO)cc21 [Selumetinib] + CC(C)n1c(=O)n(C)c2cnc3cc(F)c(-c4ccc(OCCCN5CCCCC5)nc4)cc3c21 [AZD1390] (first compound max 10 µM, 7x7, partner max 0.3 µM) ? -0.0783
